Target: human BRD4 bromodomain II (Homo sapiens, UniProt O60885)
Construct: human BRD4 bromodomain II [based on Genbank NM_058243, residues 349-460]; host or cells: E. coli
Test: Bromodomain binding assay (AlphaScreen), BRD4 BDII
Details: BRD4 BDII AlphaScreen assay; read-out: BRD4 BD2 IC50
Each item that follows carries a reported IC50.

Record excerpt, results attached:
molecule=CC(C)N1CCC[C@@]12CCN(c1cccc(-c3cc(F)cc(-c4ccc(-n5ccn(C)c5=O)c(Cl)c4)c3O)c1)C2 recordedresult="1 to 10 nM"
molecule=COC(=O)Oc1c(-c2ccc(-n3ccn(C)c3=O)c(Cl)c2)cc(F)cc1-c1cnc(C)c(N2CCN(C(C)C)CC2)c1 recordedresult="> 100 nM"
molecule=Cn1ccn(-c2ccc(-c3cc(Cl)cc(-c4cccc(N5CCN(C(C)(C)C)CC5)c4)c3O)cc2Cl)c1=O recordedresult="1 to 10 nM"
molecule=Cn1ccn(-c2ccc(-c3cc(=O)[nH]c(-c4cccc(N5CCN(C(C)(C)C)CC5)c4)c3O)cc2Cl)c1=O recordedresult="10 to 100 nM"

Report measured IC50; entry is Cc1ncc(-c2cc(F)cc(-c3ccc(-n4ccn(C)c4=O)c(Cl)c3)c2O)cc1N1CCN(C2CCOC2)CC1 (centres unmarked)
1 to 10 nM

Where these numbers come from: patent US20250179059A1
